The values you see were collected from patent US9815851B2.

# System Name: RORγ (UniProt P51449)
# Test Details: RORγ Gal4 Reporter Gene Assay in 293T cells (firefly and renilla luciferase)
# Assay type: cell-based, human
# Applied Conditions: second value of the cell; Gal4 reporter gene assay in 293T cells, firefly luciferase
Classify by measured pIC50 (FF): Y if it is equal to or exceeds 7, N if it is smaller.

Cc1c(C(=O)NC2CCOCC2)cc(-c2ccc(S(=O)(=O)NC(C)(C)C)c(C(C)C)c2)n1CC1CCCCC1 [17/226] | Y
Cc1c(C(=O)NCC(C)(C)C(=O)O)cc(-c2cc(C(C)(C)C)cc(C3(C)CC3)c2)n1CC1CCCCC1 [17/60] | Y
Cc1c(C(=O)N[C@H]2C[C@H](C(=O)O)C2)cc(-c2cc(C(F)(F)F)c3c(c2)C(C)(C)C(=O)N3C)n1CC1CCCCC1 [17/149] | N

// query Quick check, pIC50 (FF) >= 7? Cc1c(-c2cc(C(=O)NCC(C)(C)O)c(C)n2CC2CCCCC2)nc(C2(C)CC2)nc1C(C)(C)C [17/82]
// result N

// query Quick check, pIC50 (FF) >= 7? Cc1c(C(=O)NC2CCOCC2)cc(-c2ccc(-c3ccnn3C(C)C)c(C(C)(C)C)c2)n1CC1CCCCC1 [Example 26]
// result Y

// query Quick check, pIC50 (FF) >= 7? Cc1c(C(N)=O)cc(-c2cc(C(C)(C)C)cc(C(C)(C)C)c2)n1S(=O)(=O)N1CCCCC1 [7/8]
// result N

* * *

# System Name: UniProt:P51449
# Test Details: RORγ Gal4 Reporter Gene Assay in 293T cells (firefly and renilla luciferase)
# Assay type: cell-based, human
# Applied Conditions: second value of the cell; Gal4 reporter gene assay in 293T cells, firefly luciferase
Endpoint: pIC50 (FF)
Answers are plain numbers.

Cc1c(C(=O)NCC(C)(C)C(N)=O)cc(-c2ccc(S(=O)(=O)NC(C)(C)C)c(C(F)F)c2)n1CC1CCCCC1 | 8.0
Cc1c(C(=O)NCC2(C)COC2)cc(-c2cc(S(=O)(=O)N3CCCCC3)c3ccccn23)n1CC1CCCCC1 | 7.2

Batch lookup, pIC50 (FF) per entry.
1. Cc1c(C(=O)NC2CCOCC2)cc(-c2cc3c(c(C(C)(C)C)c2)OCCC3F)n1CC1CCCCC1 (stereo not shown)
2. Cc1c(C(N)=O)cc(-c2ccc(S(=O)(=O)NC(C)(C)C)c(C(C)(C)C)c2)n1CC1CCCCC1

// result
6.3
6.2

Batch lookup, pIC50 (FF) per entry.
1. Cc1c(C(=O)NC2CCOCC2)cc(-c2ccc(S(=O)(=O)NC(C)(C)C)c(C#N)c2)n1CC1CCCCC1
2. Cc1c(C(=O)NCCCC(=O)O)cc(-c2cc(C(C)(C)C)cc(C(C)(C)C)c2)n1CC1CCCCC1
3. Cc1c(C(=O)NC2COC2)cc(-c2cc(C(=O)N3CCCCC3)c3ccccn23)n1CC1CCCCC1

// result
[6.1, 6.8, 6.7]

* * *

# System Name: RORγ (UniProt P51449)
# Test Details: RORγ Gal4 Reporter Gene Assay in 293T cells (firefly and renilla luciferase)
# Format: cell-based, human
# Applied Conditions: third value of the cell; Gal4 reporter gene assay in 293T cells, renilla normalised luciferase
Endpoint: pIC50 (REN)
Give bare numbers.

# example entries with known answers
Cc1c(C(=O)NCCC(C)(C)C(=O)O)cc(-c2ccc(S(=O)(=O)N[C@@H](C)C(F)(F)F)c(C(C)(C)C)c2)n1CC1CCCCC1 [17/152] | 8.2
Cc1c(C(=O)NC2CCOCC2)cc(-c2ccc(S(=O)(=O)NC(C)(C)C)c(Cl)c2)n1CC1CCCCC1 [17/234] | 7.2
Cc1c(C(=O)NCC(C)(C)C(=O)NCCS(C)(=O)=O)cc(-c2cc(C(C)(C)C)c3c(c2)C2(CCO3)CC2)n1CC1CCCCC1 [11/4] | 7.0

Batch lookup, pIC50 (REN) per entry.
1. CNC(=O)C(C)(C)CCNC(=O)c1cc(-c2ccc(S(=O)(=O)NC(C)(C)C)c(C(F)(F)F)c2)n(CC2CCCCC2)c1C [17/136]
2. Cc1c(C(=O)NCCC(C)(C)C(=O)O)cc(-c2ccc(-c3ccnn3C(C)C)c(C(F)(F)F)c2)n1CC1CCCCC1 [17/250]
3. Cc1c(C(=O)N[C@H]2C[C@H](C(=O)O)C2)cc(-c2cc(C(C)(C)C)c3c(c2)C2(CCO3)CC2)n1CC1CCCCC1 [17/55]

// result
6.7
6.5
7.6

// query Quick one: pIC50 (REN) of CC(C)(C)NS(=O)(=O)c1ccc(-c2cc(C(=O)NC3CCOCC3)c(Cl)n2CC2CCCCC2)cc1C(C)(C)C [17/119] ?
// result 7.7

* * *

# System Name: RORγ ligand binding domain (LBD) (Homo sapiens)
# Construct: made in house; host or cells: E. coli BL-21 (BL3), vector pDEST15
# Sequence (P51449 269-508 limits assumed): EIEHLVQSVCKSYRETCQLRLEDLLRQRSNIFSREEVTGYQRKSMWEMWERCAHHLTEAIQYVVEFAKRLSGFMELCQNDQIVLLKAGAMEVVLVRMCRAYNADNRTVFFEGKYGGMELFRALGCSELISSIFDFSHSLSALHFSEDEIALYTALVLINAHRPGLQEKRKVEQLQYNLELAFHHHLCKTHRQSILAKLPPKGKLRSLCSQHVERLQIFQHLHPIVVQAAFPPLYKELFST
# Test Details: TR-FRET Activity Assay (ligand sensing, RORγ-LBD / coactivator peptide interaction, LANCE)
# Assay type: biochemical
Endpoint: IC50

# example entries with known answers
Cc1c(C(=O)NCc2cocn2)cc(-c2cc(C(C)(C)C)c3c(c2)C2(CCO3)CC2)n1CC1CCCCC1 | 1000 nM
Cc1cc(-c2cc(C(=O)NC3CCOCC3)c(C)n2CC2CCCCC2)cc(C(F)(F)F)c1S(=O)(=O)NC(C)(C)C | 794 nM
Cc1c(C(=O)NC2CCOCC2)cc(-c2ccc(S(=O)(=O)NC(C)(C)C)c(C(F)F)c2)n1CC1CCCCC1 | 316 nM
Cc1c(C(=O)NCC(C)(C)O)cc(-c2cc(C(=O)NC(C)(C)C)cc(C3(C)CC3)c2)n1CC1CCCCC1 | 398 nM
Cc1c(C(=O)NCCCCCS(C)(=O)=O)cc(-c2cc(C(C)(C)C)c3c(c2)C2(CCO3)CC2)n1CC1CCCCC1 | 631 nM

Batch lookup, IC50 per entry.
1. Cc1c(C(=O)NC2COC2)cc(-c2cc(C(C)(C)C)cc(C(C)(C)C)c2)n1CC1CCCCC1
2. Cc1c(C(=O)NC2CCOCC2)cc(-c2ccc(C(N)=O)c(C(C)(C)C)c2)n1CC1CCCCC1
3. COC(C)(C)CNC(=O)c1cc(-c2cc(C(C)(C)C)cc(C3(C)CC3)c2)n(CC2CCCCC2)c1C

// result
["158 nM", "7940 nM", "158 nM"]

* * *

# System Name: RORγ (UniProt P51449)
# Test Details: RORγ Gal4 Reporter Gene Assay in 293T cells (firefly and renilla luciferase)
# Assay type: cell-based, human
Endpoint: pIC50 (FF)

# example entries with known answers
Cc1c(C(=O)NC2CS(=O)(=O)C2)cc(-c2ccc(S(=O)(=O)NC(C)(C)C)c(C(C)(C)C)c2)n1CC1CCCCC1 | 6.2/7.1/7.0
COCC(=O)NC(C)(C)CNC(=O)c1cc(-c2cc(C(C)(C)C)cc(C3(C)CC3)c2)n(CC2CCCCC2)c1C | 6.4/7.6/7.5
Cc1c(C(=O)NC2CCOCC2)cc(-c2ccc(S(=O)(=O)NC(C)(C)C)c(C(C)(C)C)c2)n1CC1CCCCC1 | 6.3/7.8/7.8

Turning now to a further record.
// query Quick one: pIC50 (FF) of Cc1c(C(=O)NCC2CCS(=O)(=O)CC2)cc(-c2cc(C(C)(C)O)cc(C3(C)CC3)c2)n1CC1CCCCC1 ?
// result 5.8/7.3/7.3

* * *

# System Name: RORγ (UniProt P51449)
# Test Details: RORγ Gal4 Reporter Gene Assay in 293T cells (firefly and renilla luciferase)
# Format: cell-based, human
# Applied Conditions: second value of the cell; Gal4 reporter gene assay in 293T cells, firefly luciferase
Endpoint: pIC50 (FF)

# example entries with known answers
Cc1c(C(=O)NC2COC2)cc(C2=NN(C(=O)C3CCCCC3)C3(CCCCC3)C2)n1CC1CCCCC1 | < 4.7
Cc1c(C(=O)NC2CCOCC2)cc(C2=NN(C(=O)NC(C)(C)C)C3(CCCCC3)C2)n1CC1CCCCC1 | 6.4

Batch lookup, pIC50 (FF) per entry.
1. Cc1c(C(=O)NC2CCOCC2)cc(-c2ccc(S(=O)(=O)NC(C)(C)C)c(C(F)(F)F)n2)n1CC1CCCCC1
2. Cc1c(C(=O)NC[C@H]2CCCO2)cc(-c2cc(C(C)(C)C)c3c(c2)C2(CCO3)CC2)n1CC1CCCCC1

// result
1: 5.7; 2: 6.4

Batch lookup, pIC50 (FF) per entry.
1. Cc1c(C(=O)NC2COC2)cc(-c2cc(C(C)(C)C)cc(C(C)(C)C)c2)n1CC1CCC(C)CC1 (stereo not shown)
2. Cc1c(S(=O)(=O)NC(C)(C)C)ccc(-c2cc(C(=O)NC3CCOCC3)c(C)n2CC2CCCCC2)c1C(F)(F)F
3. Cc1c(C(=O)NC[C@@H]2CCCO2)cc(-c2cc(C(C)(C)C)c3c(c2)C2(CCO3)CC2)n1CC1CCCCC1

// result
[6.7, 7.7, 6.4]
